molecular target: GABA-A receptor; anion channel (Bos taurus) (UniProt P10063+P08220+P20237+P08219+P10064+P22300); assay: In vitro inhibition of specific binding of [3H]flunitrazepam to benzodiazepine receptor in bovine cerebral cortex membrane at a concentration of 10 uM.; format: cell membranes
For each of the compounds below, state its inhibition.
// units = %; emit number, no label

Request: Recorded inhibition of `O=C(NCCc1ccc(O)cc1)C(=O)c1c[nH]c2ccc(Br)cc12` , please.
Result: 75

Request: Give the measured inhibition of `O=C(NCCc1ccc(O)cc1)C(=O)c1c[nH]c2ccc([N+](=O)[O-])cc12` .
Result: 100

Request: Which inhibition value is on record for `COc1cccc(CCNC(=O)C(=O)c2c[nH]c3ccc([N+](=O)[O-])cc23)c1` ?
Result: 25

Request: Endpoint output: inhibition of `O=C(NCCc1ccc(O)cc1)C(=O)c1c[nH]c2ccccc12` . Value?
Result: 82

Request: Which value of inhibition has been reported for `O=C(NCCc1c[nH]c2ccccc12)C(=O)c1c[nH]c2ccc(Cl)cc12` in the records?
Result: 70

Request: For the compound `O=C(NCCc1ccc(O)cc1)C(=O)c1c[nH]c2ccc(Cl)cc12` , what inhibition is on record?
Result: 83

Request: Give the measured inhibition of `O=C(NCCc1c[nH]c2ccccc12)C(=O)c1c[nH]c2ccccc12` .
Result: 83

Request: Which inhibition is reported for this compound? `COc1ccc(CCNC(=O)C(=O)c2c[nH]c3ccc(Cl)cc23)cc1OC`
Result: 94

Request: I have this compound here, `Cn1cc(C(=O)C(=O)NCCc2c[nH]c3ccccc23)c2ccccc21` , and I need its recorded inhibition.
Result: 39

Request: # input compound: `COc1ccc(CCNC(=O)C(=O)c2c[nH]c3ccccc23)cc1` ; wanted: its inhibition
Result: 97
